These data points were gathered from PubChem BioAssay AID1259415.

Assay: qHTS Assay for inhibitors of the human cytomegalovirus (HCMV); further: on the % scale 0 is the no-effect control and ±100 the full control effect
Conditions: HFF cells, HCMV-luciferase reporter, 72 h; at 57.5 µM; stronger effect = lower value
Protocol: NCGC Assay Overview: Infection with human cytomegalovirus (HCMV) continues to pose significant threats for pregnant women and immunocompromised hosts. […] This is a cell-based assay for HCMV inhibition in HFFs cells. […] At 72 h post infection cell lysates were collected and luciferase activity was determined using the Glomax-Multi + Detection System (Promega, Madison, WI). […]
About 18,000 (4.4%) of roughly 410,000 compounds were called active. Inconclusive results (about 7%) are left out. The list comes from a sample in which actives are over-represented; it also holds close analogues and randomly drawn compounds.
In this section, each of the compounds is paired with its reported activity change, negative = inhibition.

smiles.repr	activity change, negative = inhibition
Cc1nn(-c2ccccc2)c(C)c1NC(=O)COC(=O)Cc1ccccc1	-13% (inactive)
NC(=O)c1ccc(Nc2ccc3c(c2)CCC3)c([N+](=O)[O-])c1	-8.76% (inactive)
COC(=O)c1ccccc1NC(=O)Cn1c(=O)cc(C)c2c(C)nn(-c3cccc(Cl)c3C)c21	-6.78% (inactive)
COc1cccc2c1cc1c(=O)n(CC(=O)N3CCN(c4ccccc4)CC3)nc(C)n12	3.76% (inactive)
Cc1ccn(-c2cccc(-n3ccc(C)n3)n2)n1	65.3% (inactive)
Cc1nn(-c2ccccc2)c(C)c1NC(=O)COc1ccc(Cl)cc1Cl	-98.7% (active)
O=C(/C=C/c1ccccc1)Oc1coc(CSc2ncccn2)cc1=O	9.32% (inactive)
CCN(CC)S(=O)(=O)c1nnc(NC(=O)COc2ccccc2Cl)s1	-5.69% (inactive)
COc1ccc(NC(=O)Cn2c(=O)cc(C)c3c(C)nn(-c4cccc(Cl)c4C)c32)cc1OC	-103% (active)
O=C1c2ccccc2C(=O)N1CCOc1ccc(F)cc1	-3.7% (inactive)

###

In this section, each of the molecules is paired with its reported activity change, negative = inhibition.
experiment: qHTS Assay for inhibitors of the human cytomegalovirus (HCMV); details: HFF cells, HCMV-luciferase reporter, 72 h; at 57.5 µM; stronger effect = lower value; further: on the % scale 0 is the no-effect control and ±100 the full control effect
The whole screen tested about 410,000 compounds, of which about 18,000 (4.4%) were called active. About 7% were inconclusive and are not listed. Many of the other results were omitted from the sample, so actives are more common in it than they were.

molecule	display.unit	activity change, negative = inhibition
Cc1ccc(CC(=O)Nc2cccc(C#N)c2)cc1	%	6.08
COc1ccc(Cl)cc1N(C)C(=O)c1cc2c(=O)oc3ccc(C)cc3c2s1	%	-13.9
COc1cc(/C=C/c2ccc(/C=C/c3cc(OC)c(OC)c(OC)c3)cc2)cc(OC)c1OC	%	-35.4
CCOc1ccccc1-n1c(SCC(=O)NCc2ccco2)nnc1-c1ccncc1	%	24.1
CC1CCc2noc(NC(=O)c3ccc([N+](=O)[O-])cc3)c2C1 (configuration not stated)	%	26.6
CCOc1ccc(CCNC(=O)C2CCN(c3ccc(N4CCOCC4)nn3)CC2)cc1OCC	%	2.74
CNS(=O)(=O)c1ccc(NC(=O)Nc2ccc3c(c2)OCO3)cc1	%	61.9
CCCCN(CC)CCCNC(=O)c1nn(C)c2c1CS(=O)(=O)c1ccccc1-2	%	-8.91
CCc1ccc(S(=O)(=O)Nc2cc3c(C(=O)OCc4ccccc4)c(C)oc3c3ccccc23)cc1	%	8.24
CCOc1ccccc1NC(=O)CCn1cnnn1	%	-4.13
CCOc1cc(NC(=O)c2ccccc2C(=O)O)c(OCC)cc1NC(=O)c1ccccc1F	%	-3.32
CC(NCc1nc2ccccc2n1C)C12CC3CC(CC(C3)C1)C2 (configuration not stated)	%	-65.6
Cc1ccc(OCCC(=O)Nc2ccc(S(=O)(=O)Nc3nccs3)cc2)cc1	%	-11.9
CC(=O)N1CCC(C(=O)OCc2ccc(Cl)cc2)(c2ccccc2)CC1	%	7.78
Cc1ccc(-n2nc(C)c3c(C)cc(=O)n(CC(=O)Nc4ccc(C(C)C)cc4)c32)cc1	%	11
O=C(OCCN1CCOCC1)C1(c2ccccc2)CCCC1	%	-35.5
CC(=O)Nc1ccc(NC(=O)C(C)OC(=O)c2ccccc2C(=O)c2ccc(Cl)c([N+](=O)[O-])c2)cc1 (configuration not stated)	%	-83.7
O=C(c1ccc2c(c1)N(Cc1ccc(Cl)cc1)C(=O)c1ccccc1S2(=O)=O)N1CCCCC1	%	-15.9
CN(c1cccc(NC(=O)c2ccc(CN3CCc4ccccc4C3)cc2)c1)S(C)(=O)=O	%	-74.1
CC(C)CN1Cc2cc(N3CCCCC3)ccc2-n2nncc2C1	%	10.2
CCOC(=O)c1ccccc1NC(=O)c1sc2nc(-c3ccc(F)cc3)cn2c1C	%	-4.65
OCC1(CCc2ccccc2)CCN(Cc2ccc3nsnc3c2)CC1	%	13.2
COc1ccc(-c2nc(Cn3c(=O)cc(C)c4c(C)nn(-c5ccccc5)c43)c(C)o2)cc1OC	%	18.8
Cn1c(COc2ccccc2C(C)(C)C)nc2ccccc21	%	-14.6
CC(C)NC(=O)c1ccc(Sc2ccccc2)c([N+](=O)[O-])c1	%	-15.4
CC1(C)C(=O)CCC2(C)C1=CCC1C2C(=O)CC2(C)C1CCC2(O)C(=O)CO (configuration not stated)	%	-4.43
CN(CC(=O)Nc1ccccc1Cl)C(=O)COc1cccc2c1OC(C)(C)C2	%	-11.1
CN(c1ccc(C(=O)N2CCc3ccccc3C2)cc1)S(C)(=O)=O	%	5.34
CCC(C)CN1CCC(CO)(Cc2ccccc2Cl)CC1 (configuration not stated)	%	-7.29
Cc1cccc(C)c1NC(=O)C1CCCN1C(=O)OC(C)(C)C (configuration not stated)	%	-2.93
CCN(CC)c1ccc(NC(=O)CN2CCN(CC(=O)Nc3ccc(Cl)cc3)CC2)cc1	%	18
O=C(c1ccc2c(c1)N(Cc1ccccc1)C(=O)c1ccccc1S2(=O)=O)N1CCCC1	%	-21.3
CCC[C@H]1CCCC/C=C\CCCC(=O)OCCN1C(=O)OC(C)(C)C	%	-71.3
CC(=O)Nc1cc(C(=O)NCc2ccc(F)cc2)ccc1Sc1ccc(F)cc1	%	-2.97
Cc1ccc(S(=O)(=O)Oc2ccc(/C=N/NC(=O)c3c(Cl)cnn3C)cc2)cc1	%	22
COc1cccc(C(O)Cc2nc3ccccc3n2C)c1OC (configuration not stated)	%	34.8
COc1ccc(CCNc2ncnc3c2cnn3-c2ccc(C)cc2)cc1	%	-8.18
O=C(O)c1cc(S(=O)(=O)N(Cc2ccccc2)c2ccccc2)ccc1Cl	%	-27.4
CCOC(=O)c1ccc(NC(=O)Cn2c(=O)n(-c3ccc(C)cc3)c(=O)c3c2cnn3C)cc1	%	2.83
CCOc1ccccc1CNC(=O)C1CCCN(S(=O)(=O)c2ccc3c(ccn3C)c2)C1 (configuration not stated)	%	-5.75
COc1cc(/C=N/O)cc(Br)c1OS(=O)(=O)c1ccc(C)cc1	%	-76.2
CC(C)(O)C#Cc1ncc(C(F)(F)F)cc1Cl	%	-30.8

###

experiment: qHTS Assay for inhibitors of the human cytomegalovirus (HCMV); settings: HFF cells, HCMV-luciferase reporter, 72 h; at 57.5 µM; further: on the % scale 0 is the no-effect control and ±100 the full control effect
About 18,000 (4.4%) of roughly 410,000 compounds were called active. Another 7% or so got no clear call; they are omitted. Rule as the data show it: active = activity change below about -60%; inconclusive = no clear call, values can overlap the other calls; inactive = above about -39%. Only a selection was taken, and actives are over-represented in it overall.
Classes used: true (active), false (inactive)

compound	category
Cc1ccc(S(=O)(=O)NNC(=O)/C=C/c2cccc(F)c2)cc1	false
CCOC(=O)c1[nH]c(C)c(CCC(=O)N2CCN(c3ccccc3)CC2)c1C	false
CCCNC(=O)C(CC)n1nc(CC)n2c(cc3oc(C)cc32)c1=O (configuration not stated)	false
O=S(=O)(c1cccc2nonc12)N1CCN(c2cccc(Cl)c2)CC1	false
Cc1ccc2nc(N3CCN(c4cccc(Cl)c4)CC3)c3nnnn3c2c1	true
COc1ccccc1CNc1ccc(-c2nc(-c3ccccc3C)no2)cc1[N+](=O)[O-]	false
Cc1cccc(NC(=O)CSc2nc3c(oc4ccccc43)c(=O)n2-c2ccc(F)cc2)c1	false
O=C(/C=C\c1ccc2c(c1)OCO2)NC1(C(=O)Nc2ccc3c(c2)OCCO3)CCCCC1	true
COC(C(=O)Nc1ccc(S(=O)(=O)Nc2ccc(C)c(C)c2)cc1)c1ccccc1 (configuration not stated)	true
CCn1cc(C(=O)N2CCN(c3cc(C)ccc3C)CC2)c(=O)c2cc(S(=O)(=O)N(C)C3CCCCC3)ccc21	false
Cc1cc(C(=O)COC(=O)c2cccs2)c(C)n1-c1c(C)n(C)n(-c2ccccc2)c1=O	false
CCc1ccc(C(=O)NNC(=O)C2CCN(c3ncnc4sc(C)c(C)c34)CC2)cc1	true
Cc1ccccc1NC(=O)Cn1c(=O)n(CC2CCC(C(=O)NCCc3ccccc3)CC2)c(=O)c2ccccc21 (configuration not stated)	false
CCOc1ccccc1N1CN(Cc2ccccc2)CNC1=S	false
COc1ccc(C(F)(F)F)cc1NC(=O)c1sc2nc(-c3cccs3)ccc2c1N	false
COc1ccc(S(=O)(=O)Nc2cc(C)on2)cc1NC(C)=O	false
CCOC(=O)c1c(-c2ccc(C)cc2C)csc1NC(=O)CSc1nnnn1C	true
COc1ccccc1NC(=O)c1cc(C2CC2)nc2c1c(C)nn2-c1ccc(C)cc1	false
CCOCCCNC(=O)c1ccc2nc(CCc3ccccc3)oc2c1	false
COc1ccc(NC(=O)CCc2nnc3n(CC(C)C)c(=O)c4ccccc4n23)cc1OC	false
COc1ccc(NS(=O)(=O)c2ccc(NC(C)=O)cc2)cc1OC	true
O=[N+]([O-])c1ccc(NCCCO)c(C(F)(F)F)c1	false
COC(=O)C1=C(c2ccccc2)c2ccccc2S(=O)(=O)N1CC(=O)Nc1ccccc1C(F)(F)F	false
COC(=O)c1c(NC(=O)c2cc(=O)c3c(C)cc(C)cc3o2)sc2c1CCCC2	false
O=C(Cn1cnc2c(oc3ccccc32)c1=O)Nc1ccc(OC(F)(F)F)cc1	false
COC(C(=O)NCc1ccccc1C)c1ccccc1 (configuration not stated)	false
Cc1ccc(NC(=O)c2ccc(S(=O)(=O)NCC3CCCO3)cc2)cc1C (configuration not stated)	false
O=C1C=CN2CCCC2CC1 (configuration not stated)	false
CCC(Oc1ccccc1C)C(=O)Nc1ccc(S(=O)(=O)Nc2cc(C)on2)cc1 (configuration not stated)	false
Cc1ccc2nc(CN3CCN(S(=O)(=O)c4ccc(C)c(C)c4)CC3)oc2c1	false
O=Cc1c(N2CCN(c3cccc(Cl)c3)CC2)nc2ccccn2c1=O	false
O=C(NCC1CCCO1)c1ccc(S(=O)(=O)Nc2ccc(F)cc2)cc1 (configuration not stated)	false
Nc1c(C(=O)OCC(=O)Nc2ccc(OC(F)F)cc2)[nH]c(=O)[nH]c1=O	false
COc1cccc(-c2cc(C(=O)Nc3ccc(C)cc3)[nH]n2)c1	false
Cc1c(S(=O)(=O)NC(C)c2ccccc2)c(=O)n(C)c(=O)n1C (configuration not stated)	false
COc1ccccc1C(=O)COC(=O)CNS(=O)(=O)c1ccc(NC(C)=O)cc1	false
CC(C)(Oc1ccc(C2CC2(Cl)Cl)cc1)C(=O)O (configuration not stated)	false
CCOC(=O)C1CCN(c2ncnc3c2c(-c2ccccc2)cn3-c2ccc(C)cc2)CC1	false
Cc1cc(=O)n2[nH]c(-c3sccc3-n3c(C)ccc3C)cc2n1	true
N#Cc1ccc(C(=O)Nc2nc(-c3cccs3)c(C(=O)C(F)(F)F)s2)cc1	true
CCn1c(NC(=O)c2ccccc2)c(-c2cccs2)c(=O)c2ccccc21	false
COc1ccc(C(=O)C[n+]2ccc(N)c(C)c2C)cc1	true
